# assay.overview: Elimination half life in human
# Assay type: ADME, organism-based
# condition.summary: in vivo
recorded.metric: half-life
Don't forget the unit after the number, please.

List half-life for every entry below, keeping the order given.
1. O=C1CCC(=O)N1C[C@H]1CC[C@H]2CN(c3ncccn3)CCN2C1 [SUNEPITRON]
2. O=C1CC2(CCCC2)CC(=O)N1CCCCN1CCN(c2ncccn2)CC1 [BUSPIRONE]

*A*
1. 2 h
2. 2 h

List half-life for every entry below, keeping the order given.
1. O=C1c2ccccc2S(=O)(=O)N1CCCCN1CCN(c2ncccn2)CC1 [IPSAPIRONE]
2. CC1(C)CC(=O)N(CCCCN2CCN(c3ncccn3)CC2)C(=O)C1 [GEPIRONE]

*A*
1. 2 h
2. 6 h

---

# target.or.system: Nociceptin receptor (Homo sapiens, UniProt P41146)
# Sequence (P41146 whole entry): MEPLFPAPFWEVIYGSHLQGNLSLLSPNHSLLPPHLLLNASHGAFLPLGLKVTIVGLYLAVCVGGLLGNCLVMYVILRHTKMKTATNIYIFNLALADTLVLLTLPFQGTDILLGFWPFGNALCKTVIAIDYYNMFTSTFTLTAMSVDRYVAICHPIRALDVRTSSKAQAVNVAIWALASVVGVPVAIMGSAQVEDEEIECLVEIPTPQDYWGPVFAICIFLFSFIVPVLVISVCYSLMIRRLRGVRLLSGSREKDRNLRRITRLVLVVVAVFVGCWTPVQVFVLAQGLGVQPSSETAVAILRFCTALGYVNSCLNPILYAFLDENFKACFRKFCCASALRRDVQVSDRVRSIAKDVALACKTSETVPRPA
pKi: −log10 of the molar value.
recorded.metric: pKi

Reported pKi ( CC(=O)Nc1cccc(N2CCN(CCCCNS(=O)(=O)CC3CCCCC3)CC2)c1 [NALUZOTAN] ) = < 5.70

---

# assay.overview: Protein binding in human serum at 2 uM
# Format: ADME, organism-based
# condition.summary: read-out: PPB (converted)
Provide the reported fraction unbound at 2 µM of each item.
One number for each entry.

CC(=O)Nc1cccc(N2CCN(CCCCNS(=O)(=O)CC3CCCCC3)CC2)c1 :: 0.08

Reported fraction unbound at 2 µM ( "CC(=O)Nc1cccc(N2CCN(CCCCNS(=O)(=O)CC(C)C)CC2)c1" ) = 0.43

---

Provide the reported Activity of each item.
# target.or.system: Adrenergic receptor alpha-1 (Rattus norvegicus) (UniProt P15823+P23944+P43140)
# assay.overview: Displacement of [3H]prazosin from Adrenergic alpha-1 receptor in rat cerebral cortex cells at 1 uM
# Format: cell-based
Answers are plain numbers, in %.

Solved entries:
CC(=O)Nc1cccc(N2CCN(CCCCN(C)S(=O)(=O)CC(C)C)CC2)c1 :: 27
CCS(=O)(=O)Nc1cccc(N2CCN(CCCCNS(=O)(=O)c3ccc(C)cc3)CC2)c1 :: 47
O=C(Nc1cccc(N2CCN(CCCCNS(=O)(=O)CC3CCCCC3)CC2)c1)C1CC1 :: 10

List Activity for every entry below, keeping the order given.
1. CC(=O)Nc1cccc(N2CCN(CC3CCN(S(=O)(=O)c4ccc(F)cc4)CC3)CC2)c1
2. CC(=O)Nc1cccc(N2CCN(CCCCNS(=O)(=O)CC3CCCCC3)CC2)c1 [NALUZOTAN]
3. CC(=O)Nc1cccc(N2CCN(CCCCNS(=O)(=O)c3ccc(F)cc3)CC2)c1
4. Cc1ccc(S(=O)(=O)NCCCCN2CCN(c3cccc(NC(=O)C(C)(C)C)c3)CC2)cc1
5. Cc1ccc(S(=O)(=O)NCCCCN2CCN(c3cccc(NC(=O)C(C)C)c3)CC2)cc1
6. CC(=O)Nc1cccc(N2CCN(CCCCNS(=O)(=O)c3ccc(C)cc3)CC2)c1
7. Cc1ccc(S(=O)(=O)NCCCCN2CCN(c3cccc(NS(C)(=O)=O)c3)CC2)cc1

*A*
1: 49; 2: 47; 3: 39; 4: 0; 5: 15; 6: 22; 7: 51

List Activity for every entry below, keeping the order given.
1. CCC(=O)Nc1cccc(N2CCN(CCCCNS(=O)(=O)c3ccc(C)cc3)CC2)c1
2. CC(=O)Nc1cccc(N2CCN(CCCCNS(=O)(=O)CC(C)C)CC2)c1

*A*
[0, 5]

List Activity for every entry below, keeping the order given.
1. Cc1ccc(S(=O)(=O)NCCCCN2CCN(c3ccccc3)CC2)cc1
2. CCCC(=O)Nc1cccc(N2CCN(CCCCNS(=O)(=O)c3ccc(C)cc3)CC2)c1
3. CC(=O)Nc1cccc(N2CCN(CCCCN(C)S(=O)(=O)CC3CCCCC3)CC2)c1
4. Cc1ccc(S(=O)(=O)NCCCCN2CCN(c3cccc(NS(=O)(=O)C(C)C)c3)CC2)cc1

*A*
1: 98; 2: 12; 3: 37; 4: 47

---

# assay.overview: Oral bioavailability in Beagle dog at 3 mg/kg, po and 1 mg/kg, iv
# Assay type: ADME, organism-based, Canis lupus familiaris
# condition.summary: in vivo
recorded.metric: bioavailability (%)
One number for each entry, in %.

Reported bioavailability ( CC(=O)Nc1cccc(N2CCN(CCCCNS(=O)(=O)CC3CCCCC3)CC2)c1 [NALUZOTAN] ) = 16

---

Provide the reported Activity of each item.
# target.or.system: Alpha-2A adrenergic receptor (Rattus norvegicus)
# assay.overview: Displacement of [3H]RX 821002 from Adrenergic alpha-2a receptor in rat cerebral cortex cells at 1 uM
# Assay type: cell-based
One number for each entry, in %.

Solved entries:
CC(=O)Nc1cccc(N2CCN(CCCCNS(=O)(=O)CC3CCCCC3)CC2)c1 [NALUZOTAN] :: 0
CCS(=O)(=O)Nc1cccc(N2CCN(CCCCNS(=O)(=O)c3ccc(C)cc3)CC2)c1 :: 14
CCCC(=O)Nc1cccc(N2CCN(CCCCNS(=O)(=O)c3ccc(C)cc3)CC2)c1 :: 12
Cc1ccc(S(=O)(=O)NCCCCN2CCN(c3cccc(NC(=O)C(C)(C)C)c3)CC2)cc1 :: 11
CC(=O)Nc1cccc(N2CCN(CCCCNS(=O)(=O)CC(C)C)CC2)c1 :: 0

Reported Activity ( "CC(=O)Nc1cccc(N2CCN(CCCCN(C)S(=O)(=O)CC3CCCCC3)CC2)c1" ) = 47

---

# assay.overview: Half life in human liver S9 fraction at 5 uM
# Format: ADME
recorded.metric: half-life at 5 µM (h)
Answers are plain numbers, in h.

CC(=O)Nc1cccc(N2CCN(CCCCNS(=O)(=O)CC3CCCCC3)CC2)c1 [NALUZOTAN] :: 1.08

For the next question, use this compound.
Reported half-life at 5 µM ( "CC(=O)Nc1cccc(N2CCN(CCCCN(C)S(=O)(=O)CC3CCCCC3)CC2)c1" ) = 1.08

---

# assay.overview: Toxicity in po dosed Sprague-Dawley rat
# Format: organism-based
# condition.summary: in vivo
recorded.metric: MTD (mg/kg)
Numbers only, in mg/kg.

Reported MTD ( "CC(=O)Nc1cccc(N2CCN(CCCCNS(=O)(=O)CC3CCCCC3)CC2)c1" ) = 300

---

# target.or.system: hERG (KCNH2) (Homo sapiens, UniProt Q12809)
# Sequence (Q12809 whole entry): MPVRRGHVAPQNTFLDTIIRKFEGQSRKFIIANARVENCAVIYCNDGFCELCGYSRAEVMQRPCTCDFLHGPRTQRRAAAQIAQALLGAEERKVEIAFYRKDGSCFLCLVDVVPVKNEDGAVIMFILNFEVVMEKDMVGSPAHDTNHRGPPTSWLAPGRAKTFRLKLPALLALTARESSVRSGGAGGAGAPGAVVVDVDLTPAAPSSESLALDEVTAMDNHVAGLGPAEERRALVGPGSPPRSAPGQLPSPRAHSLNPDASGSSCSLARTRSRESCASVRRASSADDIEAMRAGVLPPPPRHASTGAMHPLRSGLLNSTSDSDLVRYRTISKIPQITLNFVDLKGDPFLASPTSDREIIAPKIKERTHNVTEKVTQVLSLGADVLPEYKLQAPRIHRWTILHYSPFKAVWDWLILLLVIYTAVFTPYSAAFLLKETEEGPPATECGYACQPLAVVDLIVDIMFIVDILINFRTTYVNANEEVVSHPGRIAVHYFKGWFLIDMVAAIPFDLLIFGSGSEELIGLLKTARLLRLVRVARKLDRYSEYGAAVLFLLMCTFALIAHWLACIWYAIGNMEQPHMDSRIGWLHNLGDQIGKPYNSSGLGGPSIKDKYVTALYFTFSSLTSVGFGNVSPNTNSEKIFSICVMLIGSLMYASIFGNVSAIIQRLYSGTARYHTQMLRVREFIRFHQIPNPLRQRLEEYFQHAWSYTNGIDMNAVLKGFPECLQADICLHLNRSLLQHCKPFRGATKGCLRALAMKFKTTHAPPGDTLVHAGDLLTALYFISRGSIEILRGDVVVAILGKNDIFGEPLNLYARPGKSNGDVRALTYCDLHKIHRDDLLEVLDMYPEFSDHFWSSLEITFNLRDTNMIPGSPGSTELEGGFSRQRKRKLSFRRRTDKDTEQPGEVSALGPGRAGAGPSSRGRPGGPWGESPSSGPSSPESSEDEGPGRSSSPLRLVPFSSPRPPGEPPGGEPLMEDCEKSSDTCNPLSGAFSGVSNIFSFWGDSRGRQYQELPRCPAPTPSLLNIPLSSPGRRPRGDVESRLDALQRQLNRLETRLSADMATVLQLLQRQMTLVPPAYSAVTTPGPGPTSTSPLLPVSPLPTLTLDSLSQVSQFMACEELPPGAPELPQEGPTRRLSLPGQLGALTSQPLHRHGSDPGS
# assay.overview: Inhibition of hERG potassium channel in HEK293 cells by patch clamp assay at 1 uM
# condition.summary: HEK293 cells that express hERG
Provide the reported inhibition at 1 µM of each item.
Don't forget the unit after the number, please.

CC(=O)Nc1cccc(N2CCN(CCCCN(C)S(=O)(=O)CC(C)C)CC2)c1 :: 31%

For the next question, use this molecule.
Entry "CC(=O)Nc1cccc(N2CCN(CCCCNS(=O)(=O)CC3CCCCC3)CC2)c1" under hERG (KCNH2) (Homo sapiens, UniProt Q12809) had inhibition at 1 µM of 21%

---

# assay.overview: Cmax in Sprague-Dawley rat at 3 mg/kg, po
# Format: ADME, organism-based
# Set-up: dose 3 mg/kg, route oral
# condition.summary: in vivo
Provide the reported Cmax of each item.
Don't forget the unit after the number, please.

Solved entries:
CC(=O)Nc1cccc(N2CCN(CCCCNS(=O)(=O)CC(C)C)CC2)c1 :: 350 ng/mL
O=C1CC2(CCCC2)CC(=O)N1CCCCN1CCN(c2ncccn2)CC1 :: 4 ng/mL

Reported Cmax ( "CC(=O)Nc1cccc(N2CCN(CCCCNS(=O)(=O)CC3CCCCC3)CC2)c1" ) = 24 ng/mL

---

# target.or.system: UniProtKB Q13639
# Sequence (Q13639 whole entry): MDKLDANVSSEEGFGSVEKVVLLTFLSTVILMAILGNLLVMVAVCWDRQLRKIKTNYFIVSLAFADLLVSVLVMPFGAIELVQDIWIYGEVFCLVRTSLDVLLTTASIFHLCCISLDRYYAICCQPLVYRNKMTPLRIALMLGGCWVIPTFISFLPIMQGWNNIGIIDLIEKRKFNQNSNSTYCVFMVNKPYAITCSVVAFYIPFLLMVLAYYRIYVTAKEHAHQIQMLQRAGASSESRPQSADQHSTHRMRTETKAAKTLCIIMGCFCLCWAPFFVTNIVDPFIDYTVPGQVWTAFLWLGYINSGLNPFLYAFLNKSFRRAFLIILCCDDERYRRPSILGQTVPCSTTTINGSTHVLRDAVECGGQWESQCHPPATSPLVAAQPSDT
recorded.metric: Ki

Reported Ki ( "CC(=O)Nc1cccc(N2CCN(CCCCNS(=O)(=O)CC3CCCCC3)CC2)c1" ) = > 5 µM

---

# assay.overview: Half life in human liver microsome at 5 uM
# Format: ADME
# condition.summary: liver microsomes
Provide the reported half-life at 5 µM of each item.
Give bare numbers, in min.

CC(=O)Nc1cccc(N2CCN(CCCCNS(=O)(=O)CC3CCCCC3)CC2)c1 :: 28
CC(=O)Nc1cccc(N2CCN(CCCCNS(=O)(=O)c3ccc(C)cc3)CC2)c1 :: 39

For the next question, use this compound.
Reported half-life at 5 µM ( "CC(=O)Nc1cccc(N2CCN(CCCCN(C)S(=O)(=O)CC3CCCCC3)CC2)c1" ) = 12

---

# assay.overview: Binding affinity to adrenergic alpha receptor by radioligand binding assay
recorded.metric: Ki

Reported Ki ( "CC(=O)Nc1cccc(N2CCN(CCCCNS(=O)(=O)CC3CCCCC3)CC2)c1" ) = > 2000 nM

---

# target.or.system: GABA-A receptor; anion channel
# assay.overview: Binding affinity to GABA receptor by radioligand binding assay
pKi: −log10 of the molar value.
recorded.metric: pKi

Reported pKi ( CC(=O)Nc1cccc(N2CCN(CCCCNS(=O)(=O)CC3CCCCC3)CC2)c1 [NALUZOTAN] ) = < 5.70

meta.source: ChEMBL document CHEMBL1147799
